# experimental_details: Human pregnane X receptor (PXR) small molecule agonists, qHTS cell viability counter screen (AID 1346977); also: nearly all actives have a fitted effect of over 50% in size
# assay_conditions: PXR-Luc HepG2 viability, CellTiter-Fluor, 24 h; series mostly up to 92.4 µM
# Excerpt: U.S. Tox21 Program National Center for Advancing Translational Sciences [NCATS] NIH Chemical Genomics Center [NCGC] U.S. Environmental Protection Agency [EPA] National Institutes of Environmental Health Sciences [NIEHS] National Toxicology Program [NTP] U.S. Food and Drug Administration [FDA] […]
Results filed as inconclusive are left out. Calls of active or inactive are those of the source. Calls follow the shape of the dose curve; as a rule, active = well fitted cell-killing curve with a large enough effect in the repeat runs; inconclusive = weak or mixed curves, or effect the other way; inactive = flat fitted curve, though single readings scatter.
Allowed answers: y = active, n = inactive

Answered examples (2):
>>> assigned_class("CCCCN(CCCC)C(=O)N(CCCC)CCCC")
"n"
>>> assigned_class("Cc1cc(O)c2ccccc2c1O")
"y"

Now for a further compound.
Answer briefly: the call reported for "NNc1nc(-c2ccccc2)cs1" in this assay.
n

----------
# experimental_details: Caspase-3/7 induction in HepG2 cells by small molecules, qHTS assay (AID 1346978); also: nearly all actives have a fitted effect of over 15% in size
# assay_conditions: HepG2 caspase-3/7 activation, Caspase-Glo luminescence, 17 h; series mostly up to 92.4 µM
Inconclusive results are not listed. Activity calls are given as the source filed them. Calls follow the shape of the dose curve; as a rule, active = well fitted activation curve with a large enough effect in the repeat runs; inconclusive = weak or mixed curves; inactive = flat fitted curve, though single readings scatter.
Allowed answers: Yes (active), No (inactive)

>>> assigned_class("CSc1cnc(C)cn1")
"No"
>>> assigned_class("Cc1cccc(CN2CCN(C(c3ccccc3)c3ccc(Cl)cc3)CC2)c1 (stereo not given)")
"No"
>>> assigned_class("Oc1ccc(N=Nc2ccccc2)cc1")
"No"
>>> assigned_class("CN(C)C(=O)C1(N2CCCCC2)CCN(CC[C@@]2(c3ccc(Cl)c(Cl)c3)CN(C(=O)c3ccccc3)CCO2)CC1")
"Yes"
>>> assigned_class("Cn1cc(C(=O)[C@@H]2CCc3nc[nH]c3C2)c2ccccc21")
"No"
>>> assigned_class("Nc1nc2ccccc2n1Cc1ccc(F)cc1")
"No"

Answer briefly: the call reported for "O=C(c1ccc(O)cc1O)c1ccc(O)cc1O" in this assay.
No

Answer briefly: the call reported for CCCCCCCCNC(C)C(O)c1ccc(SC(C)C)cc1 (stereo not given) in this assay.
Yes

Answer briefly: the call reported for "CCCCCCCCCCCCCCCCCC[N+](C)(C)C" in this assay.
No

Answer briefly: the call reported for "Cc1cc2c(cc1C(F)(F)F)N(C(=O)Nc1ccc(Oc3cccnc3C)nc1)CC2" in this assay.
No

Answer briefly: the call reported for "c1ccc(CSCc2ccccc2)cc1" in this assay.
No

Answer briefly: the call reported for "CCC(CN)=C(c1ccccc1)c1ccccc1" in this assay.
No

Answer briefly: the call reported for "Nc1cc(C(F)(F)F)ccc1S" in this assay.
No

Answer briefly: the call reported for "CCCC(=O)OC[C@@H](OC(=O)CCC)[C@@H](OC(=O)CCC)[C@H](Cn1c2nc(=O)[nH]c(=O)c-2nc2cc(C)c(C)cc21)OC(=O)CCC" in this assay.
No

Answer briefly: the call reported for Cc1cccc(N(C)C(=S)Oc2ccc3c(c2)C2CCC3C2)c1 (stereo not given) in this assay.
No

Answer briefly: the call reported for "O=C1Cc2cc(CCN3CCN(c4nsc5ccccc45)CC3)c(Cl)cc2N1" in this assay.
No

Answer briefly: the call reported for "CC(=O)S[C@@H]1CC2=CC(=O)CC[C@]2(C)[C@H]2CC[C@@]3(C)[C@@H](CC[C@@]34CCC(=O)O4)[C@H]12" in this assay.
No

Answer briefly: the call reported for "CCN(C(=O)c1cc(C)cc(OC[C@H](C)Nc2ccncc2)c1)C(C)C" in this assay.
No

Answer briefly: the call reported for "OCCCCCCCCCCCCBr" in this assay.
No

Answer briefly: the call reported for "CCOC(=O)O[C@]1(C(=O)OCCl)CC[C@H]2[C@@H]3CCC4=CC(=O)C=C[C@]4(C)[C@H]3[C@@H](O)C[C@@]21C" in this assay.
No

Answer briefly: the call reported for "CS(=O)(=O)CCNCc1ccc(-c2ccc3ncnc(Nc4ccc(OCc5cccc(F)c5)c(Cl)c4)c3c2)o1" in this assay.
Yes

Answer briefly: the call reported for "CC[C@@]1(O)C(=O)OCc2c1cc1n(c2=O)Cc2cc3c(CN(C)C)c(O)ccc3nc2-1" in this assay.
Yes

Answer briefly: the call reported for "NNc1nc(-c2ccccc2)cs1" in this assay.
No

Answer briefly: the call reported for "CC(=O)N1CCN(c2ccc(OC[C@H]3CO[C@](Cn4ccnc4)(c4ccc(Cl)cc4Cl)O3)cc2)CC1" in this assay.
Yes

Answer briefly: the call reported for "CO[Si](CCCNc1ccccc1)(OC)OC" in this assay.
No
